B1: ZNF263 (parent)
chain: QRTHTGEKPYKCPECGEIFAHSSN

variants of: B1; assay: protein stability index of a GFP-peptide fusion (GPS, HEK-293T) (PSI 1-6); higher = more stable; settings: c terminus: a fixed tail appended;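 note: lentivirally expressed fusions sorted by FACS into six bins by GFP to DsRed ratio, PSI derived from sequencing read proportions per bin multiplied by bin number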
Form field: protein stability index (one value per entry).
assay-endpoint: protein stability index

> print(dat)
    mutation.spec           assay.endpoint  experimental.result
 1            P9N  protein stability index                 3.58
 2           P13Y  protein stability index                 3.57
 3            T5S  protein stability index                 3.21
 4            H4N  protein stability index                 3.28
 5            G6V  protein stability index                 2.79
 6            T3D  protein stability index                  3.5
 7            H4Y  protein stability index                 2.77
 8           E14A  protein stability index                 4.22
 9           C15W  protein stability index                 3.88
10           H21E  protein stability index                 3.21
11           I18K  protein stability index                 3.83
12           N24G  protein stability index                 3.04
13           Y10V  protein stability index                 3.93
14           F19S  protein stability index                 3.84
15           S22A  protein stability index                 2.88
16           S22W  protein stability index                 3.31
17            T5D  protein stability index                  3.6
18            Q1W  protein stability index                 2.01
19            Q1F  protein stability index                 2.74
20            R2D  protein stability index                 4.06
21            H4E  protein stability index                 3.02
22           P13N  protein stability index                 4.29
